Target: CDK7/CycH (Homo sapiens)
Sequence (P50613 whole entry): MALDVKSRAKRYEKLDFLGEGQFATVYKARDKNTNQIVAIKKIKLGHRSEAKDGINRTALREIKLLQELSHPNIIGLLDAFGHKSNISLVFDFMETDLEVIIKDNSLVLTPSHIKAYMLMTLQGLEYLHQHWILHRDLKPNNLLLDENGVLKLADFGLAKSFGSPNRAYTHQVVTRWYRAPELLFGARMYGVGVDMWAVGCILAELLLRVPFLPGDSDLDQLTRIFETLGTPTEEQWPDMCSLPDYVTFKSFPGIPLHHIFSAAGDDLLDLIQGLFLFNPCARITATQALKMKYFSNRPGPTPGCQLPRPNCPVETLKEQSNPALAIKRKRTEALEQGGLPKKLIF
Sequence (P51946 whole entry partner): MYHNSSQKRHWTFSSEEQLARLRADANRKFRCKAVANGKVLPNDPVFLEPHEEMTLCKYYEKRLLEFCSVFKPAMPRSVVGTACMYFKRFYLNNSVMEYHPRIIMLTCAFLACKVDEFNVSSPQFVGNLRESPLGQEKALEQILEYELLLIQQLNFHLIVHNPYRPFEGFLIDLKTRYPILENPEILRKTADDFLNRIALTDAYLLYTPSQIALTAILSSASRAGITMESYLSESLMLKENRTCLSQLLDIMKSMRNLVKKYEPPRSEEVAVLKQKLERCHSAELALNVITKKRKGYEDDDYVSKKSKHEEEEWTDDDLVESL
Assay: CDK7/CycH inhibition (Tables A1, A2)
pIC50: −log10 of the molar value.
quantityName: pIC50

Solved entries:
molecule | targetOrTestSystem | readoutValue
C=CC(=O)Nc1ccc(C(=O)Nc2cccc(Nc3nc(N4CCCCC4CCO)nc4c(CC)cnn34)c2)cc1 (stereo not drawn) | CDK7/CycH (Homo sapiens) | 6.42
C=CC(=O)Nc1cccc(Nc2nc(N[C@H]3CC[C@@H](N(C)C)CC3)nc3c2ncn3C(C)C)c1 [E-1(SB1-E-14)] | CDK7/CycH (Homo sapiens) | 6.60
C=CC(=O)Nc1ccc(C(=O)Nc2cccc(Nc3cc(N4CCCCC4CCO)nc4c(CC)cnn34)c2)cc1 (stereo not drawn) | CDK7/CycH (Homo sapiens) | 6.11
C=CC(=O)Nc1ccc(C(=O)N2CCCC(Nc3cc(N4CCCC(N)C4)nc4c(CC)cnn34)C2)cc1 (stereo not drawn) | CDK7/CycH (Homo sapiens) | 5.44
C=CC(=O)Nc1cccc(Nc2nc(N[C@H]3CC[C@H](N(C)C)CC3)nc3c(CC)cnn23)c1 | CDK7/CycH (Homo sapiens) | 5.99
C=CC(=O)Nc1cccc(CNc2cc(N3CCCC[C@H]3CCO)nc3c(CC)cnn23)c1 | CDK7/CycH (Homo sapiens) | 6.78

[P] CC(C)n1cnc2c(Nc3cccc(NC(=O)c4ccc(NC(=O)/C=C/CN(C)C)cc4)c3)nc(N3CCCC(N)C3)nc21 (stereo not drawn)
[Q] C=CC(=O)NCc1cccc(Nc2nc(N[C@H]3CC[C@H](N(C)C)CC3)nc3c2ncn3C(C)C)c1
[R] C=CC(=O)N[C@H]1CC[C@@H](Nc2cc(N3CCCC[C@H]3CCO)nc3c(CC)cnn23)CC1
[S] C=CC(=O)NC1CCCC(Nc2nc(N[C@H]3CC[C@H](N(C)C)CC3)nc3c(CC)cnn23)C1 (stereo partly drawn)
Q) List items by pIC50 in falling order. Response format: the labels, sorted as the prompt asks.
A) P, Q, S, R
(P: 7.94, Q: 6.59, S: 6.07, R: 5.14)

[P] CC(C)n1cnc2c(Nc3cccc(NC(=O)c4ccc(NC(=O)/C=C/CN(C)C)cc4)c3)nc(N[C@H]3CC[C@H](N(C)C)CC3)nc21
[Q] C=CC(=O)Nc1ccc(C(=O)N2CCCC(Nc3nc(N4CCCCC4CCO)nc4c3ncn4C(C)C)C2)cc1 (stereo not drawn)
Q) Which value of pIC50 is greater, the one for P or the one for Q ? Lab log: write the label of the selected item as the result.
A) P
(P: 8.03, Q: 5.35)

[I] C=CC(=O)NC1CCCC(Nc2nc(N[C@H]3CC[C@H](N(C)C)CC3)nc3c2ncn3C(C)C)C1 (stereo partly drawn)
[II] C=CC(=O)Nc1cccc(Nc2nc(N3CCCCC3CCO)nc3c(CC)cnn23)c1 (stereo not drawn)
Q) Hi! Which is lower in terms of pIC50, the first one I or the second one II ? Lab log: write the label of the selected item as the result.
A) I
(I: 6.12, II: 6.34)
